- System: Fibroblast
- assay-summary: Multiplex assay against human fibroblast
- Assay type: toxicity, cell-based
- details: 12 h, 10 µM, compound concentration 10 uM, number of replicates 2
Each entry below carries its reported Population Mitochondria Different-Phenotype (%).
// note: answer is a bare numeric in %

Look up Population Mitochondria Different-Phenotype (%) with Fibroblast for this compound: CN(C)[C@H]1CC[C@H](Nc2ncc3ncnc(Nc4ccc(F)c(Cl)c4)c3n2)CC1 0

----------
- Tested on: HEK-293T
- assay-summary: Multiplex assay against HEK293T
- Assay type: toxicity, cell-based
- details: human, 24 h, 1 µM, compound concentration 1 uM, number of replicates 2
readout-type: Population Membrane Permeable-Phenotype (%)
Enter the number, and then the unit.

Example compounds with recorded Population Membrane Permeable-Phenotype (%):
Cc1ccc2c(c1CCC(=O)O)CC[C@@H](NS(=O)(=O)c1ccc(Cl)cc1)C2 :: 3%
CNC(=O)c1c(F)cccc1Nc1nc(Nc2cc3c(cc2OC)CCN3C(=O)CN(C)C)nc2[nH]ccc12 :: 0%
CC(C)S(=O)(=O)c1ccccc1Nc1nc(N[C@@H]2CCCN(CCCCCCCNC(=O)COc3cccc4c3C(=O)N(C3CCC(=O)N(C)C3=O)C4=O)C2)ncc1Cl (some centres not stated) :: 0%
CN(C)CCN(Cc1ccc(-c2ccc(CNCCc3ccccc3)cc2)cc1)C(=O)CCC1CCCC1.Cl.Cl :: 1%
CCN1CCN(Cc2ccc(C(=O)Nc3ccc(C)c(Oc4ccc5c(c4)CC(=O)N5)c3)cc2C(F)(F)F)CC1.Cl.Cl :: 2%

Identify the measured Population Membrane Permeable-Phenotype (%) of Cc1cc(C2CCCNC2)ccc1Nc1ncc(Br)c(NCc2cccc3c2C(C)(C)C(=O)N3)n1 (configuration not stated) for HEK-293T. 1%

Requested read-out Population Membrane Permeable-Phenotype (%), target or system HEK-293T, entry Cc1cc(NC(=O)c2cccc(NC(=O)/C=C/CN(C)C)c2)ccc1Nc1nccc(-c2cccnc2)n1 2%

----------
- Test system: Fibroblast
- assay-summary: Multiplex assay against human fibroblast
- Assay type: toxicity, cell-based
- details: 48 h, 10 µM, compound concentration 10 uM, number of replicates 2
readout-type: Population Normal (%)
The response must be a number in % with no trailing unit.

Below: 8 compounds and their reported Population Normal (%).
Cc1onc(-c2ccccc2Cl)c1C(=O)N(C)c1ccc(Cl)cc1 :: 100
OC(c1ccc(-c2ccc(CN3CCN(Cc4ccncc4)CC3)cc2)c(F)c1)(C(F)(F)F)C(F)(F)F :: 100
CN1CCc2cc(Cl)c(O)cc2[C@@H](c2ccccc2)C1.Cl :: 100
CC(C)N(CCCCOCC(=O)NS(C)(=O)=O)c1cnc(-c2ccccc2)c(-c2ccccc2)n1 :: 100
CCCN(CCc1cccs1)[C@H]1CCc2c(O)cccc2C1 :: 100
COc1ccc(NC(=O)c2ccc(-c3ccc(-c4noc(C)n4)cc3C)cc2)cc1OCCN(C)C.Cl :: 100
CS(=O)(=O)c1ccc(C(=O)Nc2cccc(COc3ccc(Br)cc3CN3CC[C@@H](O)C3)c2)c(Cl)c1.O=CO :: 100
Cn1ncc(NC(=O)c2nc(-c3c(F)cccc3F)sc2N)c1N1CC[C@@H](N)[C@H](F)CC1 :: 100

Please look up its Population Normal (%): COc1cc(C(=O)NC2CCN(C)CC2)ccc1Nc1ncc(C(F)(F)F)c(NCc2ccc(C)cc2N(C)S(C)(=O)=O)n1.O=CO.O=CO 100

Query (compound): COCCNC1CCC(Nc2cc(-c3csc(NCC4(C#N)CCOCC4)n3)c(Cl)cn2)CC1 (configuration not stated) ; field requested: Population Normal (%) 99

Population Normal (%) lookup needed for C[C@@H](OC[C@@]1(c2ccccc2)CC[C@]2(CCC(=O)N2)CN1)c1cc(C(F)(F)F)cc(C(F)(F)F)c1 , thanks. 100

Fill blank: measured Population Normal (%) of the compound N=C(N)NCCC[C@H](NC(=O)COCC(c1ccccc1)c1ccccc1)C(=O)O.O=C(O)C(F)(F)F is ____. 100
